These entries and their values trace back to patent US20260274955A1.

- tested system: T1, Anti-CD28 Fab (SEQ ID NOs: 202, 203)
- T1 construct: biotinylated and captured on neutravidin coated plates in the phage ELISA
- T1 sequence (VH, as listed by the source, chain 1 of 2): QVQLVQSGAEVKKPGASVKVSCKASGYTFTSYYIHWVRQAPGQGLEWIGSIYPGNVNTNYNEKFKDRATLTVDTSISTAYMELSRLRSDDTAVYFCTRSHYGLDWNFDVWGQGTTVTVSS
- T1 sequence (VL, as listed by the source, chain 2 of 2): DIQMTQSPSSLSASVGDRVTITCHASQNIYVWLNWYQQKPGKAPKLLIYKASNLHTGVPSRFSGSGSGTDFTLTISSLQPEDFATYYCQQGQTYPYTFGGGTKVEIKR
- assay: phage ELISA, Fab on plate;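 also: crude clonal phage supernatants added to wells pretreated with blocking buffer with or without CD28 antigen, then bound phage read out via HRP-linked anti-M13 antibody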
measured endpoint: Anti-CD28 Fab (SEQ ID NOs: 202, 203) signal
# print the numeric value only

Please review the entries below; each comes with its answer.
YCEGHLPAYMWKCL [Phage-659] = 1.31
YCDGHLSVYMSKCL [Phage-718] = 1.15
YCEGHLPEYMIKCL [Phage-658] = 1.32

Which Anti-CD28 Fab (SEQ ID NOs: 202, 203) signal value belongs to YCDGHSLEYMLKCL [Phage-620] ?
1.39

Which Anti-CD28 Fab (SEQ ID NOs: 202, 203) signal value belongs to YCAGHMPIYMTKCL [Phage-667] ?
1.3

Which Anti-CD28 Fab (SEQ ID NOs: 202, 203) signal value belongs to YCEGHLPMYMQKCL [Phage-660] ?
1.31

Which Anti-CD28 Fab (SEQ ID NOs: 202, 203) signal value belongs to YCHGHLPQYMSKCM [Phage-700] ?
1.21

Which Anti-CD28 Fab (SEQ ID NOs: 202, 203) signal value belongs to YCDGHLSIYMTKCL [Phage-638] ?
1.36

Which Anti-CD28 Fab (SEQ ID NOs: 202, 203) signal value belongs to YCEGHSPEYMHKCL [Phage-647] ?
1.34

Which Anti-CD28 Fab (SEQ ID NOs: 202, 203) signal value belongs to YCEGHFPLYMNKCL [Phage-675] ?
1.27

Which Anti-CD28 Fab (SEQ ID NOs: 202, 203) signal value belongs to YCDGHSEEFMWKCL [Phage-640] ?
1.35
